- Assay protocol: recombinant UMI read abundance after kanamycin selection (control-corrected) (log10(CPM+1)); higher = more efficient recombination; extreme values may be limits of the assay; sequences stand for … in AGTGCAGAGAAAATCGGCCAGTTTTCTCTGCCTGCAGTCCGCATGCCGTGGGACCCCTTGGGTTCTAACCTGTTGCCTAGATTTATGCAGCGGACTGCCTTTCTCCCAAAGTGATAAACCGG…AGGTTGGTTTCACT; site = the 11-nt donor;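 also: IS621 bridge recombinase in Escherichia coli cells against a fixed T5 target plasmid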
Measured attribute: recombinant UMI read abundance (log10)
Could you respond with only the numeric value?

// worked examples, recombinant UMI read abundance (log10) included
{"columns": ["Biopolymer sequence", "Obs value"],
 "data": [
  ["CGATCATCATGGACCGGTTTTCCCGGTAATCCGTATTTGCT (site CGAACATCTAG)", 0.278],
  ["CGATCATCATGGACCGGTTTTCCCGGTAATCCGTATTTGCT (site CGCTCATCTCG)", 0],
  ["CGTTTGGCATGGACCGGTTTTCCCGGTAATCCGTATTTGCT (site CGTGTGGCTAG)", 0.00452]
]}

// recombinant UMI read abundance (log10) lookup, sequence = CGCCACTCATGGACCGGTTTTCCCGGTAATCCGTATTTGCG (site CGCCACTCTCG) , result: 2.05

Briefly, recombinant UMI read abundance (log10) measured for CTTTACACATGGACCGGTTTTCCCGGTAATCCGTATTTGCT (site CTCTACACTAG) : 1.2

Numbers sourced from the supplement of paper PMC11208160.
